Target: T1, human transferrin receptor (recombinant, for surface plasmon resonance) (human, UniProt P02786 89-760)
T1 construct: also called huTfR; human transferrin receptor-biotinylated
T1 sequence (P02786 89-760 limits assumed): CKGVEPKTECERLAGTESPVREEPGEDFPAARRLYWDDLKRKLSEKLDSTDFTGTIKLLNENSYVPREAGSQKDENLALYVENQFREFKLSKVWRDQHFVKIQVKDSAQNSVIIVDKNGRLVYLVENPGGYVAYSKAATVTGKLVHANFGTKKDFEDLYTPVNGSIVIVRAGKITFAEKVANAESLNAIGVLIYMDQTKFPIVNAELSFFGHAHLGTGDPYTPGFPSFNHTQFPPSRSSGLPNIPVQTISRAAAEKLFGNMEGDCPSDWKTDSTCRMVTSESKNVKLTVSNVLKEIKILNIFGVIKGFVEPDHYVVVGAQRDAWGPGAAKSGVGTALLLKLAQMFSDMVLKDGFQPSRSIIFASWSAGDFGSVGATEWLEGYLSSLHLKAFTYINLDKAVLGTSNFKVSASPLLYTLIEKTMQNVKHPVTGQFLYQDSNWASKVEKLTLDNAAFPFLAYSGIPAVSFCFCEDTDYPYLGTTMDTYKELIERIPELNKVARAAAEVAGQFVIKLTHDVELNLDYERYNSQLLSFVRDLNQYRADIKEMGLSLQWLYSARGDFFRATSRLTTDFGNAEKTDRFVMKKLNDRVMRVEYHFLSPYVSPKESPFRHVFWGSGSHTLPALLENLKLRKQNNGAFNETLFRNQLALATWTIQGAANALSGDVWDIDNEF
Experiment: SPR
Parameter koff: see the listing below.
reported metric: koff (s⁻¹)

{"binder": "4/94 SEQ ID NO 194 / SEQ ID NO 209 (antibody, V domains shown) VH: QVQLVQSGAEVKKPGASVKVSCKASGFNIKDTYIHWVIQAPGQGLEWMGRIDPANGDTKSDPKFQVRVTITADTSTSTVYMELSSLRSEDTAVYYCVRDYLYPYYFDFWGQGTTVTVSS VL: KIVLTQSPGTLSLSPGERATLSCRASESVDTYVSWYQQKPGQAPRLLIYGASNRYTGIPDRFSGSGSGTDFTLTISRLEPEDFADYYCGQTYNYPLTFGQGTKLEI", "obs value": 0.000448}
{"binder": "4/94 SEQ ID NO 198 / SEQ ID NO 201 (antibody, V domains shown) VH: QVQLVQSGAEVKKPGSSVKVSCKASGFNIKDTYIHWVIQRPGQGLEWMGRIDPANGDTKSDPKFQGRVTITADESTSTAYMELSSLRSEDTAVYYCVRDYLYPYYFDFWGQGTTVTVSS VL: KIQMTQSPSSLSASVGDRVTITCRASESVDTYVSWYQQKPGKAPKLLIYGASNRYTGVPSRFSGSGSGTDFTLTISSLQPEDFADYYCGQTYNYPLTFGQGTKLEI", "obs value": 0.000684}
{"binder": "4/94 SEQ ID NO 195 / SEQ ID NO 201 (antibody, V domains shown) VH: QVQLVQSGAEVKKPGASVKVSCKASGFNIKDTYIHWVIQAPGQGLEWMGRIDPANGDTKSAPKFQVRVTITADTSTSTVYMELSSLRSEDTAVYYCVRDYLYPYYFDFWGQGTTVTVSS VL: KIQMTQSPSSLSASVGDRVTITCRASESVDTYVSWYQQKPGKAPKLLIYGASNRYTGVPSRFSGSGSGTDFTLTISSLQPEDFADYYCGQTYNYPLTFGQGTKLEI", "obs value": 0.000399}
